# Assayed target: MyD88^TIR (Homo sapiens, UniProt Q99836)
# Construct: MyD88 (residues 148–296); 6xHis; made in house; host or cells: E. coli BL21 (DE3)
# Sequence (Q99836 148-296): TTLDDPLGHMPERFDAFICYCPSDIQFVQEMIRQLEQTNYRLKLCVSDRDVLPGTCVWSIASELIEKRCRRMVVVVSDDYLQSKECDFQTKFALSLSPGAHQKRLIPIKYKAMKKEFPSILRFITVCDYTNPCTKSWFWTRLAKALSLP
# Assay comment: T‐Surf phage library (P8 and P3) selection against MyD88^TIR, four rounds, NGS read counts
# Type: binding
# Test conditions: P3 library, 4R selection against MyD88, rank before grouping
Label Satisfied when P3_MyD88 Rank (before) is at or above 3000; anything below gets Not satisfied.

Answered cases to consult:
| Record sequence | Group label |
| --- | --- |
| YAFTGQLNQYLVQRGV | Not satisfied |
| RISAFHKQLVMAVKAQ | Not satisfied |
| DHHMDLPRDTAIKPEILG | Not satisfied |
| KEREFGAQRAGKWRAA | Satisfied |
| LKCCYPYFWSKLRYAM | Not satisfied |

Reported P3_MyD88 Rank (before) reaches at least 3000 for `DHHMDLTRGKAIKPEILG` ?
Not satisfied

Reported P3_MyD88 Rank (before) reaches at least 3000 for `KMQKWNDALYEAAHLR` ?
Satisfied

Reported P3_MyD88 Rank (before) reaches at least 3000 for `VDPTHIRNQTGRYEKA` ?
Not satisfied

Reported P3_MyD88 Rank (before) reaches at least 3000 for `RFWERLRYMIPEVSHQ` ?
Not satisfied
